Reference source: paper PMC10096391

# TESTED_TARGET: CDK1/cyclin B (CDK1B) (Homo sapiens)
# EXPERIMENT_DESCRIPTION: ADP-Glo kinase assay, CDK1/cyclin B
# Assay type: biochemical
# CONDITION_DETAILS: apparent Ki from IC50, ADP-Glo
READOUT_NAME: pKi
Give only the number. pKi is defined as minus log10 of concentration in molar units.

Please review the entries below; each comes with its answer.
SMILES_DATA: Cn1cc(-c2nc(Nc3cn[nH]c3)ncc2F)cn1
VALUE_MEASURED: 7.74

SMILES_DATA: Cn1cc(-c2nc(Nc3cnn(CC(N)=O)c3)ncc2F)cn1
VALUE_MEASURED: 6.95

SMILES_DATA: Cc1nn(C)cc1-c1nc(Nc2cnn(C)c2)ncc1Cl
VALUE_MEASURED: 6.65

SMILES_DATA: Cn1cc(-c2nc(Nc3cn[nH]c3)ncc2Cl)cn1
VALUE_MEASURED: 7.60

Recorded result, Cn1cc(-c2nc(Nc3cnn(CC(N)=O)c3)ncc2Cl)cn1 , pKi: 7.74

---

# TESTED_TARGET: CDK9/cyclin T1 (CDK9T1) (Homo sapiens, UniProt P50750)
# Sequence (P50750 whole entry): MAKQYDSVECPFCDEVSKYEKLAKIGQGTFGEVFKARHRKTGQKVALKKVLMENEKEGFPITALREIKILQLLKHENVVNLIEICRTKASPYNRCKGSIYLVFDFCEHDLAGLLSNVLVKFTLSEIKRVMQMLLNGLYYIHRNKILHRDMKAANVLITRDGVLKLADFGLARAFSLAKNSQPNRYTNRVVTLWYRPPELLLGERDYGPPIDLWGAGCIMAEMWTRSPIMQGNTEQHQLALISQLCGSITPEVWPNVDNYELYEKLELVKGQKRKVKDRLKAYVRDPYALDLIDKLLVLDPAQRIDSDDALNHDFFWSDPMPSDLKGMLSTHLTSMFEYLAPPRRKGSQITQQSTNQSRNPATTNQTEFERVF
# Sequence (O60563 whole entry partner): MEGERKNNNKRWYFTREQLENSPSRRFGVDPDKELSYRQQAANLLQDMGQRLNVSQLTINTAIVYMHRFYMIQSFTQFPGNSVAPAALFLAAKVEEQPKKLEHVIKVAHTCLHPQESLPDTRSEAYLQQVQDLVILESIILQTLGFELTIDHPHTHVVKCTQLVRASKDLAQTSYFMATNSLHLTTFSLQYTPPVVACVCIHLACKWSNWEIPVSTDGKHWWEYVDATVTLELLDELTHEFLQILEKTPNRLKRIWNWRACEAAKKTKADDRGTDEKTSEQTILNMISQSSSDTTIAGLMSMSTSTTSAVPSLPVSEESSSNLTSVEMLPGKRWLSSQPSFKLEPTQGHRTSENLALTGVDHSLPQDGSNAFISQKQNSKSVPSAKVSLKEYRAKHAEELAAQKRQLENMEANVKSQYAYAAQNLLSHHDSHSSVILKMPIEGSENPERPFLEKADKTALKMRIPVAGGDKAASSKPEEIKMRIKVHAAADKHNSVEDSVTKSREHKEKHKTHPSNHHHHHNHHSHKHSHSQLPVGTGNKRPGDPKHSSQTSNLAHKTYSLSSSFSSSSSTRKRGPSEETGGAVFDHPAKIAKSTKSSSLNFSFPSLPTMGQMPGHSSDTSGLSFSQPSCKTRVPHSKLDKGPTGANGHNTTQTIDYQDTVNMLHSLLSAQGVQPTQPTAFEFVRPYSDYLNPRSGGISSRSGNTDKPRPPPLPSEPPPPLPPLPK
# EXPERIMENT_DESCRIPTION: ADP-Glo kinase assay, CDK9/cyclin T1
# Assay type: biochemical
# CONDITION_DETAILS: apparent Ki from IC50, ADP-Glo
// reported Ki for each item listed
API: value field is a number in nM; no unit string.

COMPOUND: Cn1cc(-c2nc(Nc3cnn(CC(N)=O)c3)ncc2Cl)cn1 [Compound 19]
UNIT_INFO: nM
Ki: 101

// next entry
Recorded result, Cc1nn(C)cc1-c1nc(Nc2cnn(C)c2)ncc1F [Compound 20] , Ki: 343

---

// reported inhibition at 1 µM for each item listed
# TESTED_TARGET: CDK2/cyclin E (CDK2E) (Homo sapiens, UniProt P24941)
# EXPERIMENT_DESCRIPTION: ADP-Glo kinase assay, CDK2/cyclin E
# Type: biochemical
# CONDITION_DETAILS: read-out: % Enzymatic Inhibition at 1 µM CDK2E

SMILES_DATA: Cn1cc(Nc2ncc(F)c(-c3cnn(CCN4CCOCC4)c3)n2)cn1
inhibition at 1 µM: 48%

SMILES_DATA: Cn1cc(Nc2ncc(F)c(-c3ccnn3C)n2)cn1
inhibition at 1 µM: 64%

Recorded result, Cn1cc(Nc2ncc(F)c(-c3cnn(C)c3)n2)cn1 , inhibition at 1 µM: 97%

Recorded result, Cn1cc(-c2nc(Nc3nccs3)ncc2Cl)cn1 , inhibition at 1 µM: 46%

---

# Tested on: A2780 ovarian cancer cells
# EXPERIMENT_DESCRIPTION: 72 h MTT antiproliferative assay, A2780
# Assay type: cell-based
# CONDITION_DETAILS: Homo sapiens, A2780; 1 µM, 72 h MTT; read-out: % Growth Inhibition (GI) at 1 µM A2780
Classify by measured inhibition at 1 µM: Met if it is equal to or exceeds 8%, Not met if it is smaller.

Solved entries:
SMILES_DATA: Cn1cc(-c2nc(Nc3nccs3)ncc2Cl)cn1
TESTED_TARGET: A2780 ovarian cancer cells
CLASS: Met

SMILES_DATA: Cn1cc(Nc2ncc(F)c(-c3cnn(CCN4CCOCC4)c3)n2)cn1
TESTED_TARGET: A2780 ovarian cancer cells
CLASS: Not met

SMILES_DATA: Cc1nn(C)cc1-c1nc(Nc2cnn(C)c2)ncc1F
TESTED_TARGET: A2780 ovarian cancer cells
CLASS: Not met

SMILES_DATA: Cn1cc(-c2nc(Nc3cnn(CC(N)=O)c3)ncc2Cl)cn1
TESTED_TARGET: A2780 ovarian cancer cells
CLASS: Met

SMILES_DATA: Cn1cc(Nc2ncc(Cl)c(-c3cnn(CCN4CCOCC4)c3)n2)cn1
TESTED_TARGET: A2780 ovarian cancer cells
CLASS: Not met

SMILES_DATA: Cn1cc(Nc2ncc(F)c(-c3ccnn3C)n2)cn1
TESTED_TARGET: A2780 ovarian cancer cells
CLASS: Met

SMILES_DATA: Cn1cc(Nc2ncc(Cl)c(-c3cnn(C)c3)n2)cn1
TESTED_TARGET: A2780 ovarian cancer cells
CLASS: Met

SMILES_DATA: Cn1cc(-c2nc(Nc3cnn(CC(N)=O)c3)ncc2F)cn1
TESTED_TARGET: A2780 ovarian cancer cells
CLASS: Not met

Consider the additional compound presented here.
Assess whether reported inhibition at 1 µM for Cn1cc(Nc2ncc(F)c(-c3cnn(C)c3)n2)cn1 sits at 8% or higher.
Met

---

# TESTED_TARGET: CDK9/cyclin T1 (CDK9T1) (Homo sapiens)
# EXPERIMENT_DESCRIPTION: ADP-Glo kinase assay, CDK9/cyclin T1
# Type: biochemical
# CONDITION_DETAILS: read-out: % Enzymatic Inhibition at 1 µM CDK9T1
// reported inhibition at 1 µM for each item listed
API: value field is a number in %; no unit string.

Please review the entries below; each comes with its answer.
SMILES_DATA: Cn1cc(Nc2ncc(F)c(-c3cnn(CCN4CCOCC4)c3)n2)cn1
VALUE_MEASURED: 24

SMILES_DATA: Cn1cc(-c2nc(Nc3ccn[nH]3)ncc2Cl)cn1
VALUE_MEASURED: 40

SMILES_DATA: Cn1cc(-c2nc(Nc3nccs3)ncc2Cl)cn1
VALUE_MEASURED: 31

SMILES_DATA: Cn1cc(-c2nc(Nc3cnn(CC(N)=O)c3)ncc2F)cn1
VALUE_MEASURED: 68

SMILES_DATA: Cn1cc(Nc2ncc(F)c(-c3ccnn3C)n2)cn1
VALUE_MEASURED: 45

Test item Cn1cc(Nc2ncc(Cl)c(-c3cnn(CCN4CCOCC4)c3)n2)cn1 ; CDK9/cyclin T1 (CDK9T1) (Homo sapiens); reported inhibition at 1 µM was 21

---

# TESTED_TARGET: CDK1/cyclin B (CDK1B) (Homo sapiens)
# EXPERIMENT_DESCRIPTION: ADP-Glo kinase assay, CDK1/cyclin B
# Assay type: biochemical
# CONDITION_DETAILS: read-out: % Enzymatic Inhibition at 1 µM CDK1B
Classify by measured inhibition at 1 µM: Met if it is equal to or exceeds 30%, Not met if it is smaller.

Solved entries:
SMILES_DATA: Cn1cc(Nc2ncc(F)c(-c3ccnn3C)n2)cn1
CLASS: Met
//
SMILES_DATA: Cn1cc(-c2nc(Nc3ccn[nH]3)ncc2Cl)cn1
CLASS: Not met
//
SMILES_DATA: Cn1cc(-c2nc(Nc3nccs3)ncc2Cl)cn1
CLASS: Met

Assess whether reported inhibition at 1 µM for Cn1cc(Nc2ncc(F)c(-c3cnn(CCN4CCOCC4)c3)n2)cn1 sits at 30% or higher.
Not met

Assess whether reported inhibition at 1 µM for Cn1cc(Nc2ncc(Cl)c(-c3cnn(CCN4CCOCC4)c3)n2)cn1 sits at 30% or higher.
Met

---

// reported pKi for each item listed
# TESTED_TARGET: CDK1/cyclin B (CDK1B) (Homo sapiens, UniProt P06493)
# Sequence (P06493 whole entry): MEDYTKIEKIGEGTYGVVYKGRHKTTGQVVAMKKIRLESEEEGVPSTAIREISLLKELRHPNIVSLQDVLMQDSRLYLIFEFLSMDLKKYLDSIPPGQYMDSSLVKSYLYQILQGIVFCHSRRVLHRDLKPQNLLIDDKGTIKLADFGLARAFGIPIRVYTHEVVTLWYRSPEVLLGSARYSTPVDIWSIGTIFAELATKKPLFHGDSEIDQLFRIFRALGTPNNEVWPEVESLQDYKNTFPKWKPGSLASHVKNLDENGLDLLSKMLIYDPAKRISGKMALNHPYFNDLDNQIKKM
# Sequence (P14635 whole entry partner): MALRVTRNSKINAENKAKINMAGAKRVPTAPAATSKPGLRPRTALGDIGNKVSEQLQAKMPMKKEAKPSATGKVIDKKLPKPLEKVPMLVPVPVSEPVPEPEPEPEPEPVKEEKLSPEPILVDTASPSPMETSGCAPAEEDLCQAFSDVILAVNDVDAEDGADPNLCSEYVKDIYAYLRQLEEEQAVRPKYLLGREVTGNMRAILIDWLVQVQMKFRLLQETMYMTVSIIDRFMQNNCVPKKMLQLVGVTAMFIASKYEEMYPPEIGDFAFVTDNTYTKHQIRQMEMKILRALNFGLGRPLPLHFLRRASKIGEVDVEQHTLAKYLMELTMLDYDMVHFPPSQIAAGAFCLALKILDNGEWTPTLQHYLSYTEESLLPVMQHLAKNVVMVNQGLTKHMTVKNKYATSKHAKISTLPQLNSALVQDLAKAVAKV
# EXPERIMENT_DESCRIPTION: ADP-Glo kinase assay, CDK1/cyclin B
# Format: biochemical
# CONDITION_DETAILS: apparent Ki from IC50, ADP-Glo
Give only the number. pKi is defined as minus log10 of concentration in molar units.

Please review the entries below; each comes with its answer.
SMILES_DATA: Cn1cc(Nc2ncc(Cl)c(-c3cnn(C)c3)n2)cn1
TESTED_TARGET: CDK1/cyclin B (CDK1B) (Homo sapiens, UniProt P06493)
VALUE_MEASURED: 7.47

SMILES_DATA: Cc1nn(C)cc1-c1nc(Nc2cnn(C)c2)ncc1F
TESTED_TARGET: CDK1/cyclin B (CDK1B) (Homo sapiens, UniProt P06493)
VALUE_MEASURED: 6.79

// next entry
Recorded result, Cn1cc(Nc2ncc(F)c(-c3cnn(C)c3)n2)cn1 , pKi: 7.04

---

# TESTED_TARGET: CDK5/p25 (CDK5p25) (Homo sapiens, UniProt Q00535)
# Sequence (Q00535 whole entry): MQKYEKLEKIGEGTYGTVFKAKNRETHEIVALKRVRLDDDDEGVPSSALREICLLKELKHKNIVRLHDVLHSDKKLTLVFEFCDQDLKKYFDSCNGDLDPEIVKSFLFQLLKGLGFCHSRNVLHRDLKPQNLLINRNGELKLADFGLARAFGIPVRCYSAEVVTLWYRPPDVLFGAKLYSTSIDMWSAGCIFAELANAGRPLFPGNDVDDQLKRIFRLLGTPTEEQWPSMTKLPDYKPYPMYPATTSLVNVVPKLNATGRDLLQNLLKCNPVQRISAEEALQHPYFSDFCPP
# Sequence (Q15078 99-307 partner limits assumed): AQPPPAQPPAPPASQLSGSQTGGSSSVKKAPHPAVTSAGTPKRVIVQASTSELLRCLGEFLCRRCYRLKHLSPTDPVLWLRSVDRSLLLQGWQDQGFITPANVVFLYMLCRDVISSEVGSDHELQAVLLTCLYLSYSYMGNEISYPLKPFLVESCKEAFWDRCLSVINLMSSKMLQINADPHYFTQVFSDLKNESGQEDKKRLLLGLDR
# EXPERIMENT_DESCRIPTION: ADP-Glo kinase assay, CDK5/p25
# Format: biochemical
# CONDITION_DETAILS: apparent Ki from IC50, ADP-Glo
pKi: −log10 of the molar value.
Classify by measured pKi: Y if it is equal to or exceeds 7, N if it is smaller.

COMPOUND: Cn1cc(Nc2ncc(F)c(-c3cnn(C)c3)n2)cn1 [Compound 16]
CLASS: Y
//
COMPOUND: Cc1nn(C)cc1-c1nc(Nc2cnn(C)c2)ncc1F [Compound 20]
CLASS: Y
//
COMPOUND: Cn1cc(-c2nc(Nc3ccn[nH]3)ncc2Cl)cn1 [Compound 23]
CLASS: Y
//
COMPOUND: Cn1cc(-c2nc(Nc3cnn(CC(N)=O)c3)ncc2Cl)cn1 [Compound 19]
CLASS: Y

Consider the additional compound presented here.
Assess whether reported pKi for Cn1cc(-c2nc(Nc3cnn(CC(N)=O)c3)ncc2F)cn1 [Compound 18] sits at 7 or higher.
N
